Data provenance is PubChem BioAssay AID1963967.

- System: 855422-203-R-J1-PDC spheroids with HUVEC/MSC, viability;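 also: agents incubated with spheroids for one week before read-out; 100% = DMSO vehicle-treated control wells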
- experiment description: Anticancer human tumor 855422-203-R-J1-PDC patient-derived bladder carcinoma cell line growth inhibition [PI3K]
- conditions used: second compound 1 µM; first compound 0.1 µM; stronger effect = lower value
- Text: Combinatorial screen of targeted agents with the PI3K inhibitors inavolisib, alpelisib, duvelisib, and copanlisib in multi-cell type tumor spheroids A high-throughput screen of multi-cell type tumor spheroids was designed to identify active combinations of targeted small molecules and PI3K pathway inhibitors. […] Compounds. […] If the clinical Cmax for an agent had not been determined, the highest concentration tested was 10 microM. […]

- compound: "CC(=O)c1c(C)c2cnc(Nc3ccc(N4CCNCC4)cn3)nc2n(C2CCCC2)c1=O + CC(Nc1ncnc2nc[nH]c12)c1cc2cccc(Cl)c2c(=O)n1-c1ccccc1"
  assayed target: "855422-203-R-J1-PDC spheroids with HUVEC/MSC, viability"
  viability, T/C / %: 73.9
- compound: "C[C@@H](NC(=O)c1ncnc(N)c1Cl)c1ncc(C(=O)Nc2cc(C(F)(F)F)c(Cl)cn2)s1 + COc1c(OCCCN2CCOCC2)ccc2c3n(c(=NC(=O)c4cnc(N)nc4)nc12)CCN3"
  assayed target: "855422-203-R-J1-PDC spheroids with HUVEC/MSC, viability"
  viability, T/C / %: 7.01
- compound: "CC(Cn1ccc(-c2ccc(C#N)c(Cl)c2)n1)NC(=O)c1cc(C(C)O)[nH]n1 (configuration not stated) + Cc1nc(NC(=O)N2CCCC2C(N)=O)sc1-c1ccnc(C(C)(C)C(F)(F)F)c1"
  assayed target: "855422-203-R-J1-PDC spheroids with HUVEC/MSC, viability"
  viability, T/C / %: 76.7
- compound: "CC1(C)CCC(CN2CCN(c3ccc(C(=O)NS(=O)(=O)c4ccc(NCC5CCOCC5)c([N+](=O)[O-])c4)c(Oc4cnc5[nH]ccc5c4)c3)CC2)=C(c2ccc(Cl)cc2)C1 + CC(Nc1ccc2c(c1)OCCn1cc(N3C(=O)OCC3C(F)F)nc1-2)C(N)=O"
  assayed target: "855422-203-R-J1-PDC spheroids with HUVEC/MSC, viability"
  viability, T/C / %: 35.2
- compound: "CNC(=O)c1ccc(N2C(=S)N(c3ccc(C#N)c(C(F)(F)F)c3)C(=O)C2(C)C)cc1F + CC(Nc1ncnc2nc[nH]c12)c1cc2cccc(Cl)c2c(=O)n1-c1ccccc1"
  assayed target: "855422-203-R-J1-PDC spheroids with HUVEC/MSC, viability"
  viability, T/C / %: 102
- compound: "C[C@@H](NC(=O)c1ncnc(N)c1Cl)c1ncc(C(=O)Nc2cc(C(F)(F)F)c(Cl)cn2)s1 + CC(Nc1ccc2c(c1)OCCn1cc(N3C(=O)OCC3C(F)F)nc1-2)C(N)=O"
  assayed target: "855422-203-R-J1-PDC spheroids with HUVEC/MSC, viability"
  viability, T/C / %: 40.4
- compound: "CC(=O)c1c(C)c2cnc(Nc3ccc(N4CCNCC4)cn3)nc2n(C2CCCC2)c1=O + Cc1nc(NC(=O)N2CCCC2C(N)=O)sc1-c1ccnc(C(C)(C)C(F)(F)F)c1"
  assayed target: "855422-203-R-J1-PDC spheroids with HUVEC/MSC, viability"
  viability, T/C / %: 33
- compound: "Cn1nccc1Nc1nccc(-c2ccn(C(CO)c3ccc(Cl)c(F)c3)c(=O)c2)n1 (configuration not stated) + CC(Nc1ccc2c(c1)OCCn1cc(N3C(=O)OCC3C(F)F)nc1-2)C(N)=O"
  assayed target: "855422-203-R-J1-PDC spheroids with HUVEC/MSC, viability"
  viability, T/C / %: 32.2
- compound: "C=CC(=O)N1CCN(c2nc(=O)n(-c3c(C)ccnc3C(C)C)c3nc(-c4c(O)cccc4F)c(F)cc23)C(C)C1 (configuration not stated) + COc1c(OCCCN2CCOCC2)ccc2c3n(c(=NC(=O)c4cnc(N)nc4)nc12)CCN3"
  assayed target: "855422-203-R-J1-PDC spheroids with HUVEC/MSC, viability"
  viability, T/C / %: 4.63
- compound: "C#Cc1c(F)ccc2cc(O)cc(-c3ncc4c(N5CC6CCC(C5)N6)nc(OCC56CCCN5CC(F)C6)nc4c3F)c12 (configuration not stated) + COc1c(OCCCN2CCOCC2)ccc2c3n(c(=NC(=O)c4cnc(N)nc4)nc12)CCN3"
  assayed target: "855422-203-R-J1-PDC spheroids with HUVEC/MSC, viability"
  viability, T/C / %: 3.24
- compound: "CC(C)n1nc(-c2ccc3oc(N)nc3c2)c2c(N)ncnc21 + COc1c(OCCCN2CCOCC2)ccc2c3n(c(=NC(=O)c4cnc(N)nc4)nc12)CCN3"
  assayed target: "855422-203-R-J1-PDC spheroids with HUVEC/MSC, viability"
  viability, T/C / %: 1.3
- compound: "Cn1ncc(Cl)c1-c1cc(C(=O)NC(CN)Cc2cccc(F)c2)sc1Cl (configuration not stated) + Cc1nc(NC(=O)N2CCCC2C(N)=O)sc1-c1ccnc(C(C)(C)C(F)(F)F)c1"
  assayed target: "855422-203-R-J1-PDC spheroids with HUVEC/MSC, viability"
  viability, T/C / %: 65.3
